Test system: Malme-3M
Test: NCI tumour cell line growth inhibition, 48 h
Calls of active or inactive are those of the source. Rule as the data show it: active = GI50 up to about 1.1 µM and inactive = higher.
recordedMetric: GI50

## Input Form field: GI50 recorded for `OC(Cc1ccc2ccccc2n1)(C(F)(F)Cl)C(F)(F)Cl` with Malme-3M (enter value)
## Output > 10 µM (inactive)

## Input Form field: GI50 recorded for CC(N)Cc1ccc(C(=O)Cl)cc1 (configuration not stated) with Malme-3M (enter value)
## Output > 100 µM (inactive)

## Input Form field: GI50 recorded for `NC(=O)C(=O)Cc1nc2ccccc2s1` with Malme-3M (enter value)
## Output > 100 µM (inactive)

## Input Form field: GI50 recorded for `O=c1c2c(nc3[nH]ccn13)CCC2` with Malme-3M (enter value)
## Output > 10 µM (inactive)

## Input Form field: GI50 recorded for CC(O)C1(CNc2cc(Cl)nc(N)n2)CCCCC1 (configuration not stated) with Malme-3M (enter value)
## Output > 100 µM (inactive)

## Input Form field: GI50 recorded for `Cc1ccc(SC[C@@]2(C(F)F)NC(=O)NC2=O)cc1` with Malme-3M (enter value)
## Output > 100 µM (inactive)

## Input Form field: GI50 recorded for Cc1ccc(C2C(C(=O)C(C)(C)C)N2S(=O)(=O)c2ccc(C)cc2)cc1 (configuration not stated) with Malme-3M (enter value)
## Output 23.2 µM (inactive)

## Input Form field: GI50 recorded for CC(C)CCCC(C)[C@H]1CCC2[C@@H]3CCC4Nc5nocc5C[C@]4(C)C3CC[C@@]21C (some centres not stated) with Malme-3M (enter value)
## Output 15.5 µM (inactive)

## Input Form field: GI50 recorded for COC1=C2CC(C)CC(OC)C(OC(=O)CCCN)C(C)/C=C(\C)C(OC(N)=O)C(OC)/C=C\C=C(/C)C(=O)NC(=CC1=O)C2=O (configuration not stated) with Malme-3M (enter value)
## Output 2.29 µM (inactive)

## Input Form field: GI50 recorded for `O=C(O)CC[P+](c1ccccc1)(c1ccccc1)c1ccccc1` with Malme-3M (enter value)
## Output 16.3 µM (inactive)

## Input Form field: GI50 recorded for `CCOC(NC(=O)CC)(C(F)(F)F)C(F)(F)F` with Malme-3M (enter value)
## Output > 100 µM (inactive)

## Input Form field: GI50 recorded for `COC(=O)[C@@H]1[C@H](O)CCC2=C(CC(=O)c3ccoc3)[C@H](C)CC[C@]21C` with Malme-3M (enter value)
## Output > 50 µM (inactive)

## Input Form field: GI50 recorded for `CN(C)/C=N/c1ccc2nonc2c1` with Malme-3M (enter value)
## Output > 100 µM (inactive)

## Input Form field: GI50 recorded for Oc1c(C(Nc2ccccn2)c2ccccc2)ccc2cccnc12 (configuration not stated) with Malme-3M (enter value)
## Output 1.46 µM (inactive)

## Input Form field: GI50 recorded for NC(=O)CCCC(NCc1c2ccccc2nc2ccccc12)C(=O)O (configuration not stated) with Malme-3M (enter value)
## Output 77.1 µM (inactive)

## Input Form field: GI50 recorded for `O=C(NC(OCc1ccccc1)(C(F)(F)F)C(F)(F)F)OCc1ccccc1` with Malme-3M (enter value)
## Output 18 µM (inactive)

## Input Form field: GI50 recorded for O=C(Nc1ccccc1C(=O)O)C(=O)C(C(=O)c1ccccc1-c1ccccc1)C1OC(=O)c2ccccc21 (configuration not stated) with Malme-3M (enter value)
## Output 12.2 µM (inactive)

## Input Form field: GI50 recorded for COC(=O)C1(C)NCCc2c1[nH]c1ccccc21 (configuration not stated) with Malme-3M (enter value)
## Output > 100 µM (inactive)

## Input Form field: GI50 recorded for `[N-]=[N+]=Nc1ccc2c(c1)Sc1ccccc1N2CCCCN1CCN(Cc2ccc(C(=O)c3ccccc3)cc2)CC1` with Malme-3M (enter value)
## Output 1.95 µM (inactive)

## Input Form field: GI50 recorded for CC(=O)OCC1OC(n2c(C#N)cc(=O)[nH]c2=O)CC1OC(C)=O (configuration not stated) with Malme-3M (enter value)
## Output > 100 µM (inactive)

## Input Form field: GI50 recorded for `CC(=O)c1sc2[n+](c1C)C(=O)/C(=C\c1ccccc1Cl)S2` with Malme-3M (enter value)
## Output 17.5 µM (inactive)

## Input Form field: GI50 recorded for `C=CCN(c1cc(OC)c2[nH]c(C(=O)O)c(C)c2c1[N+](=O)[O-])S(C)(=O)=O` with Malme-3M (enter value)
## Output 9.79 µM (inactive)

* * *

Test system: NCI/ADR-RES
Assay: NCI tumour cell line growth inhibition, 48 h
Activity calls are given as the source filed them. Cut-off read from the data, not from the text of the source: active = GI50 up to about 1.1 µM and inactive = higher.
recordedMetric: GI50

## Input What value of GI50 has been recorded for this entry: CN(C)CCCC1c2ccccc2Oc2ccc(C(F)(F)F)cc21 (stereo unspecified)
## Output 13.7 µM (inactive)

## Input What value of GI50 has been recorded for this entry: `Nc1cc(Cl)ccc1SSc1ccc(Cl)cc1N`
## Output 7.94 µM (inactive)

## Input What value of GI50 has been recorded for this entry: `CC(CO)(CO)Nc1ncnc2ccccc12`
## Output > 100 µM (inactive)

## Input What value of GI50 has been recorded for this entry: CC(C)C1N(C)c2ccc(Cl)cc2[C@H]2c3ccccc3CCN12 (stereo partly specified)
## Output > 100 µM (inactive)

## Input What value of GI50 has been recorded for this entry: CC(=O)NC(CC(C)C)C(=O)NC(CC(C)C)C(=O)NC(C=O)CCCNC(=N)N (stereo unspecified)
## Output > 100 µM (inactive)

## Input What value of GI50 has been recorded for this entry: `O=C1OC(c2ccccc2)=N/C1=C\c1ccc([N+](=O)[O-])cc1`
## Output 8.97 µM (inactive)

* * *

System: CCRF-CEM
Assay: NCI tumour cell line growth inhibition, 48 h
Calls of active or inactive are those of the source. Cut-off read from the data, not from the text of the source: active = GI50 up to about 1.1 µM and inactive = higher.
Give measured GI50 for each item. Keep answers brief.

## Input Form field: GI50 recorded for CC1(C)C=C(/C=C2/N(S(=O)(=O)C(F)(F)F)C(/C=C3/N(S(=O)(=O)C(F)(F)F)C(C)(C#N)CC3(C)C)=CC2(C)C)N=C1/C=C1/CC(C)(C)C(=O)N1 (stereo not given) with CCRF-CEM (enter value)
## Output 2.84 µM (inactive)

## Input Form field: GI50 recorded for O=C1C(=c2cc3c(c4ccccc24)=NC24CCCCC2C(c2ccccc2)C=C(c2ccccc2)N34)C(=O)c2ccccc21 (stereo not given) with CCRF-CEM (enter value)
## Output 15.6 µM (inactive)

## Input Form field: GI50 recorded for `O=C1C=C(O)C(=O)c2c(O)ccc(O)c21` with CCRF-CEM (enter value)
## Output > 100 µM (inactive)

## Input Form field: GI50 recorded for `CCOC(=O)NC` with CCRF-CEM (enter value)
## Output > 100 µM (inactive)

## Input Form field: GI50 recorded for `Brc1cccc(Nc2nc(-c3cccs3)nc3ccc(Br)cc23)c1` with CCRF-CEM (enter value)
## Output 1.51 µM (inactive)

* * *

Tested on: PC-3
Experiment: NCI tumour cell line growth inhibition, 48 h
The source made the active and inactive calls. Rule as the data show it: active = GI50 up to about 1.1 µM and inactive = higher.
Pick one and only one: t for active, f for inactive

## Input Given `Cc1ccc(Nc2n[nH]c(=S)s2)cc1C` , state the outcome it received in this test.
## Output f

## Input Given `COc1cc2oc(=O)cc(C)c2cc1[N+](=O)[O-]` , state the outcome it received in this test.
## Output f

## Input Given `CCOC(=O)c1ccc(/N=c2/[nH]c3ccccc3s/c2=N/c2ccc(C(=O)OCC)cc2)cc1` , state the outcome it received in this test.
## Output f

## Input Given `Cc1cccc(-c2cc(O)c3cc(C)cnc3n2)c1` , state the outcome it received in this test.
## Output t

* * *

System: K562
Test: NCI tumour cell line growth inhibition, 48 h
Activity calls are given as the source filed them. Cut-off read from the data, not from the text of the source: active = GI50 up to about 1.1 µM and inactive = higher.
Pick one and only one: Y = active, N = inactive

## Input Given CN1C(=O)c2ccccc2OC12C=Cc1c(ccc3ccccc13)O2 (centres undefined) , state the outcome it received in this test.
## Output N

## Input Given CC(O)C1(CNc2cc(Cl)nc(N)n2)CCCCC1 (centres undefined) , state the outcome it received in this test.
## Output N

## Input Given O=C(O)C1C(C(=O)Nc2ccc3c(c2)Cc2ccccc2-3)C2(Cl)C(Cl)=C(Cl)C1(Cl)C2(Cl)Cl (centres undefined) , state the outcome it received in this test.
## Output N

## Input Given `c1cc(CSP234N5CCN2CCN3CCN4CC5)ccc1CSP123N4CCN1CCN2CCN3CC4` , state the outcome it received in this test.
## Output Y

## Input Given `COc1ccc(C[C@H](N)C(=O)N2C[C@@H](CO)C[C@@H](n3ccc(=O)[nH]c3=O)C2)cc1` , state the outcome it received in this test.
## Output N

## Input Given CCC12C=C(C(=O)OC)N3c4ccccc4C4CCN(CCC1)C2C43 (centres undefined) , state the outcome it received in this test.
## Output N

## Input Given COC(=O)C1=C(C(=O)OC)C(C(=O)c2ccc(Br)cc2)N2N=C(c3ccc(Cl)cc3)C=CC12 (centres undefined) , state the outcome it received in this test.
## Output N

## Input Given `C[C@@H](N[C@H]1CCC[C@@H]1O)c1ccccc1.C[C@@H](N[C@H]1CCC[C@H]1O)c1ccccc1` , state the outcome it received in this test.
## Output N

## Input Given CC(=O)OCC1OC(n2c(C#N)cc(=O)[nH]c2=O)CC1OC(C)=O (centres undefined) , state the outcome it received in this test.
## Output N
